Overview of reported Pair-wise inhibition (%) across a group of binders:
TGT: recombinant pentameric gH complex (Towne strain) (human cytomegalovirus, Towne strain) (UniProt P17176)
Sequence (P17176 30-715, one chain of several): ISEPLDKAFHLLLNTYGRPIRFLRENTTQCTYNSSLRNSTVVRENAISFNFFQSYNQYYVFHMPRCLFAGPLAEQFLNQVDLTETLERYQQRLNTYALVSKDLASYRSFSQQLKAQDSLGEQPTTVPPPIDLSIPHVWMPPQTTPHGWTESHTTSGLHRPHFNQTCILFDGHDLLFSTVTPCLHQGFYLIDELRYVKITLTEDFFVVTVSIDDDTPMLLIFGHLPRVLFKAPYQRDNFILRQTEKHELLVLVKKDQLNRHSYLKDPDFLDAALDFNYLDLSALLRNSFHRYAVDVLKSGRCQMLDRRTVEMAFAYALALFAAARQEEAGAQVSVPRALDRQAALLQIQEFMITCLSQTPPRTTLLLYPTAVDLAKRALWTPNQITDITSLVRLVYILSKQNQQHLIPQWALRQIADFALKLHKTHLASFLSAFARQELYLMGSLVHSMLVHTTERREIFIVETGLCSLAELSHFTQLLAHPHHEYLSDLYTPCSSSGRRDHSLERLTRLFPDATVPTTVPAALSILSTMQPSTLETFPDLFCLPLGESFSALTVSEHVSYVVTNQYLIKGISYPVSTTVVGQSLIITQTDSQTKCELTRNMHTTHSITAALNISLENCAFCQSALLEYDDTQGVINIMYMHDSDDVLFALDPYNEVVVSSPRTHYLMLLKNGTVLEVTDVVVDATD
PROCEDURE_DETAILS: BLI competition on His-pentamer; competitor (antibody 2): 2-25
REPORTED_METRIC: Pair-wise inhibition (%)

3-7 (antibody, V domains shown) VH: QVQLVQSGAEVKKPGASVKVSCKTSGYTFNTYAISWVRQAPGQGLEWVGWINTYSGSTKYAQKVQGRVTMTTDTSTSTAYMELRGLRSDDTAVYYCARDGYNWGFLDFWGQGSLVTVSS VL: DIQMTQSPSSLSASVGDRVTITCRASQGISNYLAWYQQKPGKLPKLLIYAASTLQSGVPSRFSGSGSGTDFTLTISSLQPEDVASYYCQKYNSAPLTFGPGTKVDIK :: 44
3-16 (antibody, V domains shown) VH: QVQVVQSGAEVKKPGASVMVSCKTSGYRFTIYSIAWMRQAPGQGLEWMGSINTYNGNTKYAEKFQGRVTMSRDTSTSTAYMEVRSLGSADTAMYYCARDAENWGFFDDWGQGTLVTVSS VL: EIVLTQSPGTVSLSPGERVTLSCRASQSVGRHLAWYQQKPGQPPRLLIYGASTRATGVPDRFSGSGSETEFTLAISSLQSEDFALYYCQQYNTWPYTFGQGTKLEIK :: -21
1-85 (antibody, V domains shown) VH: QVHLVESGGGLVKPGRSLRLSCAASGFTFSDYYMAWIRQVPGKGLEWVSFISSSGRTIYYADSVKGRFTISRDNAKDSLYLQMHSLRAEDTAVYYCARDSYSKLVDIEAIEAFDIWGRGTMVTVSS VL: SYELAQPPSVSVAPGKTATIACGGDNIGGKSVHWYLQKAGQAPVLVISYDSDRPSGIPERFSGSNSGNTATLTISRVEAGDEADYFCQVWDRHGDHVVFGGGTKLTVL :: -4
